Recorded values, source ChEMBL document CHEMBL1165965.

Molecular target: Atypical kinase COQ8B, mitochondrial (Homo sapiens)
Assay: Inhibition of ADCK4 at 1 uM

RECORD SMILES	inhibition
CN1CCN(c2ccc(-c3cnc4c(c3)N(Cc3cc(Cl)ccc3Cl)CCN4)cn2)CC1	< 50%
O=C(c1ccc(-c2cnc3c(c2)N(Cc2cc(Cl)ccc2C(F)(F)F)CCN3)cc1)N1CCC(N2CCCC2)CC1	< 50%
CN1CCN(c2ccc(-c3cnc4c(c3)N(Cc3c(F)ccc(F)c3Cl)CCN4)cn2)CC1	< 50%
FC(F)(F)c1ccc(Cl)cc1CN1CCNc2ncc(-c3ccnc(N4CCNCC4)c3)cc21	< 50%
CN1CCN(c2ccc(-c3cnc4c(c3)N(Cc3cc(F)ccc3F)CCN4)cn2)CC1	< 50%
COC1CCN(C(=O)c2ccc(-c3cnc4c(c3)N(Cc3cc(Cl)ccc3C(F)(F)F)CCN4)cc2)CC1	< 50%
CN1CCN(c2ccc(-c3cnc4c(c3)N(Cc3cc(Cl)ccc3C(F)(F)F)CCN4)cn2)CC1	< 50%
O=C(O)c1ccc(-c2cnc3c(c2)N(Cc2cc(Cl)ccc2C(F)(F)F)CCN3)cc1	< 50%
CC(=O)N1CCN(c2cc(-c3cnc4c(c3)N(Cc3cc(Cl)ccc3C(F)(F)F)CCN4)ccn2)CC1	< 50%
O=C(c1ccc(-c2cnc3c(c2)N(Cc2cc(Cl)ccc2C(F)(F)F)CCN3)cc1)N1CCCCC1	< 50%

----------
System: Receptor-type tyrosine-protein kinase FLT3 (Homo sapiens), P36888 [K663Q]
Assay: Inhibition of FLT3 K663Q mutant at 1 uM

RECORD SMILES	UNIT SYMBOL	inhibition
CC(=O)N1CCN(c2cc(-c3cnc4c(c3)N(Cc3cc(Cl)ccc3C(F)(F)F)CCN4)ccn2)CC1	%	93
CN1CCN(c2ccc(-c3cnc4c(c3)N(Cc3cc(Cl)ccc3C(F)(F)F)CCN4)cn2)CC1	%	92
CN1CCN(c2ccc(-c3cnc4c(c3)N(Cc3cc(Cl)ccc3Cl)CCN4)cn2)CC1	%	93
FC(F)(F)c1ccc(Cl)cc1CN1CCNc2ncc(-c3ccnc(N4CCNCC4)c3)cc21	%	98
CN1CCN(c2ccc(-c3cnc4c(c3)N(Cc3c(F)ccc(F)c3Cl)CCN4)cn2)CC1	%	70
CN1CCN(c2ccc(-c3cnc4c(c3)N(Cc3cc(F)ccc3F)CCN4)cn2)CC1	%	80

----------
System: Proto-oncogene tyrosine-protein kinase receptor Ret (Homo sapiens), P07949 [V804L]
Sequence (P07949 whole entry V804L): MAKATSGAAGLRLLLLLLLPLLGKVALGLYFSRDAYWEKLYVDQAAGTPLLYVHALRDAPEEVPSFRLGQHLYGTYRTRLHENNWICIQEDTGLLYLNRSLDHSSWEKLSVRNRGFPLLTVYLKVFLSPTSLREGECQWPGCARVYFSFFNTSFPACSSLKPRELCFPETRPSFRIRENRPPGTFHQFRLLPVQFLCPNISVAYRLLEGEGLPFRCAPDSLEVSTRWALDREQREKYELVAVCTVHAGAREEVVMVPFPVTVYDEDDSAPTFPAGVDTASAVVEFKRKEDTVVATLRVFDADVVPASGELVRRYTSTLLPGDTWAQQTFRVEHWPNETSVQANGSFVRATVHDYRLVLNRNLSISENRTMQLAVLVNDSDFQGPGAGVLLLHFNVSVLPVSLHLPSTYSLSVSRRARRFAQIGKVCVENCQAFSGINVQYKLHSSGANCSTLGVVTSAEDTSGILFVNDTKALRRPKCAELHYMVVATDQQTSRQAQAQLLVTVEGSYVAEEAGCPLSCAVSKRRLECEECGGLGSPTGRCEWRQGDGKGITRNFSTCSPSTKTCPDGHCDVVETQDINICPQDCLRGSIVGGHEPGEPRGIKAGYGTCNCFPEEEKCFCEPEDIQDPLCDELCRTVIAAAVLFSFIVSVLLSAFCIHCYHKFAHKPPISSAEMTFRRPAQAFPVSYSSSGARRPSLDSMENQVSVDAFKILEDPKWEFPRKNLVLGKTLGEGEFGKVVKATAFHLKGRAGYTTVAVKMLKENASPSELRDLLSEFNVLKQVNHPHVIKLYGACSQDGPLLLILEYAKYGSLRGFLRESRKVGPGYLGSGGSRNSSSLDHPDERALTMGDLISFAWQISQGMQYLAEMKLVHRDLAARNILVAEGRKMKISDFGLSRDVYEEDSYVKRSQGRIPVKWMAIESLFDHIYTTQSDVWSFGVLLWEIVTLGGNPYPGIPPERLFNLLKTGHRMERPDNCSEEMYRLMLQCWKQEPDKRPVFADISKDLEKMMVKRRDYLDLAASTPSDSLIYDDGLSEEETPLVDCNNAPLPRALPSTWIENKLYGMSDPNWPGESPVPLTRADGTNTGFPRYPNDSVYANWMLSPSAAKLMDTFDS
Test: Inhibition of RET V804L mutant at 1 uM
Entries annotated with measured inhibition

RECORD SMILES	TEST SYSTEM	inhibition
CC(=O)N1CCN(c2cc(-c3cnc4c(c3)N(Cc3cc(Cl)ccc3C(F)(F)F)CCN4)ccn2)CC1	Proto-oncogene tyrosine-protein kinase receptor Ret (Homo sapiens), P07949 [V804L]	< 50%
CN1CCN(c2ccc(-c3cnc4c(c3)N(Cc3cc(Cl)ccc3C(F)(F)F)CCN4)cn2)CC1	Proto-oncogene tyrosine-protein kinase receptor Ret (Homo sapiens), P07949 [V804L]	< 50%
CN1CCN(c2ccc(-c3cnc4c(c3)N(Cc3c(F)ccc(F)c3Cl)CCN4)cn2)CC1	Proto-oncogene tyrosine-protein kinase receptor Ret (Homo sapiens), P07949 [V804L]	< 50%
FC(F)(F)c1ccc(Cl)cc1CN1CCNc2ncc(-c3ccnc(N4CCNCC4)c3)cc21	Proto-oncogene tyrosine-protein kinase receptor Ret (Homo sapiens), P07949 [V804L]	89%
CN1CCN(c2ccc(-c3cnc4c(c3)N(Cc3cc(F)ccc3F)CCN4)cn2)CC1	Proto-oncogene tyrosine-protein kinase receptor Ret (Homo sapiens), P07949 [V804L]	< 50%
CN1CCN(c2ccc(-c3cnc4c(c3)N(Cc3cc(Cl)ccc3Cl)CCN4)cn2)CC1	Proto-oncogene tyrosine-protein kinase receptor Ret (Homo sapiens), P07949 [V804L]	< 50%
